Target: T1, Caspase-7 (UniProt P55210)
T1 sequence (looked up): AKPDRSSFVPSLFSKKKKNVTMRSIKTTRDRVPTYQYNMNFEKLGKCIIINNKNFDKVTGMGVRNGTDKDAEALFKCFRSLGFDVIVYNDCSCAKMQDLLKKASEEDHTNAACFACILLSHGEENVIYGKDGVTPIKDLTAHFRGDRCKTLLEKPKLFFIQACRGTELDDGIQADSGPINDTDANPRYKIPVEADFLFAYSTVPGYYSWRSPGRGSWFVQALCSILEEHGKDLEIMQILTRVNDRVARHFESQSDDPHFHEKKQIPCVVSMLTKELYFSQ
Experiment: cell-based or functional assay
Numbered stars: 1 amine (or outer) side, 2 acyl side, 3 side chain; on linkers, the order of the positions; unused ones are H or OH. Square brackets hold non-standard residues; d marks the D form. * marks the point of attachment. CH═CH‑CON(CH2Ph)2 = O=C(/C=C/*)N(Cc1ccccc1)Cc1ccccc1; CH═CH‑CON(CH3)CH2CH2Ph = CN(CCc1ccccc1)C(=O)/C=C/*; AAsp = aza-Asp, O=C(N(CC(=O)[*:3])N[*:1])[*:2]; CH═CH‑CON(CH3)CH2Ph = CN(Cc1ccccc1)C(=O)/C=C/*; CH═CH‑COOCH2Ph = O=C(/C=C/*)OCc1ccccc1; CH:CH‑COOEt = CCOC(=O)/C=C/*; CH═CH‑COOEt = CCOC(=O)/C=C/*; Cbz = O=C(OCc1ccccc1)*
Below: a set of entries, each annotated with reported log10(k2).
reported.property: log10(k2) (log10 of the value in M⁻¹ s⁻¹)

- binder: "Cbz-IET[AAsp]-{CH═CH‑COOEt} (SMILES CCOC(=O)/C=C/C(=O)N(CC(=O)O)NC(=O)[C@@H](NC(=O)[C@H](CCC(=O)O)NC(=O)[C@@H](NC(=O)OCc1ccccc1)[C@@H](C)CC)[C@@H](C)O) [Cbz-Ile-Glu-Thr-AAsp-CH═CH-COOEt]"
  log10(k2): 2.72
- binder: "Cbz-IET[AAsp]-{CH═CH‑CONHPh} [Cbz-Ile-Glu-Thr-AAsp-CH═CH-CONHPh]"
  log10(k2): 2.96
- binder: "Cbz-IET[AAsp]-{CH═CH‑CON(CH3)CH2CH2Ph} (SMILES CC[C@H](C)[C@H](NC(=O)OCc1ccccc1)C(=O)N[C@@H](CCC(=O)O)C(=O)N[C@H](C(=O)NN(CC(=O)O)C(=O)/C=C/C(=O)N(C)CCc1ccccc1)[C@@H](C)O) [Cbz-Ile-Glu-Thr-AAsp-CH═CH-CON(CH3)CH2CH2Ph]"
  log10(k2): 3.01
- binder: "Cbz-IET[AAsp]-{CH═CH‑CONHCH2CH2Ph} [Cbz-Ile-Glu-Thr-AAsp-CH═CH-CONHCH2CH2Ph]"
  log10(k2): 2.64
- binder: "Cbz-IET[AAsp]-{CH═CH‑CON(CH3)CH2Ph} (SMILES CC[C@H](C)[C@H](NC(=O)OCc1ccccc1)C(=O)N[C@@H](CCC(=O)O)C(=O)N[C@H](C(=O)NN(CC(=O)O)C(=O)/C=C/C(=O)N(C)Cc1ccccc1)[C@@H](C)O) [Cbz-Ile-Glu-Thr-AAsp-CH═CH-CON(CH3)CH2Ph]"
  log10(k2): 2.59
- binder: "Cbz-IET[AAsp]-{CH═CH‑CONHCH2Ph} [Cbz-Ile-Glu-Thr-AAsp-CH═CH-CONHCH2Ph]"
  log10(k2): 2.00
- binder: "Cbz-VEV[AAsp]-{CH:CH‑COOEt} (SMILES CCOC(=O)/C=C/C(=O)N(CC(=O)O)NC(=O)[C@@H](NC(=O)[C@H](CCC(=O)O)NC(=O)[C@@H](NC(=O)OCc1ccccc1)C(C)C)C(C)C) [Cbz-Val-Glu-Val-AAsp-CH═CH-COOEt]"
  log10(k2): 3.56
- binder: "Cbz-IET[AAsp]-{CH═CH‑COOCH2Ph} (SMILES CC[C@H](C)[C@H](NC(=O)OCc1ccccc1)C(=O)N[C@@H](CCC(=O)O)C(=O)N[C@H](C(=O)NN(CC(=O)O)C(=O)/C=C/C(=O)OCc1ccccc1)[C@@H](C)O) [Cbz-Ile-Glu-Thr-AAsp-CH═CH-COOCH2Ph]"
  log10(k2): 2.82
- binder: "Cbz-IET[AAsp]-{CH═CH‑CON(CH2Ph)2} (SMILES CC[C@H](C)[C@H](NC(=O)OCc1ccccc1)C(=O)N[C@@H](CCC(=O)O)C(=O)N[C@H](C(=O)NN(CC(=O)O)C(=O)/C=C/C(=O)N(Cc1ccccc1)Cc1ccccc1)[C@@H](C)O) [Cbz-Ile-Glu-Thr-AAsp-CH═CH-CON(CH2Ph)2]"
  log10(k2): 3.06
